In this section, each of the binders is paired with its reported pKd.
- MEASURED ON: T1, Human Nectin-4 (human, UniProt Q96NY8 32-349, limits assumed)
- T1 construct: Protein immobilised on the SPR chip; also called target protein
- T1 sequence: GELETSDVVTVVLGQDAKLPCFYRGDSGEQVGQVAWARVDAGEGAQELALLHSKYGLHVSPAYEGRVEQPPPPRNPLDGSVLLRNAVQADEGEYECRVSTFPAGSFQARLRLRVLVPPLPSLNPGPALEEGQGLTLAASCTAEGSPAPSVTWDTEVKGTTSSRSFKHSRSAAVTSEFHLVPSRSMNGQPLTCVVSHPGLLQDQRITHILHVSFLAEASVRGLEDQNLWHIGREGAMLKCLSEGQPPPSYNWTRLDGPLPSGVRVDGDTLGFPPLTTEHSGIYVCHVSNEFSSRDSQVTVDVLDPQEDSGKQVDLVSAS
- ASSAY DETAILS: Table 2B (DELFIA or SPR)
pKd: −log10 of the molar value. Bridges are numbered along the chain shown (N, C = ends). Primed or numbered codes have the meaning given here. Where no end group is shown, it is not given here. [ ]: non-standard residue; d: D form. The star is where a group is joined. Biotin = O=C1N[C@H]2[C@H](CS[C@H]2CCCCC(=O)*)N1; Cit = NC(=O)NCCC[C@H](N)C(=O)O; PEG4″ = 4(ethylene glycol)
MEASURED ATTRIBUTE: pKd

| BINDER | ASSAY RESULT |
| --- | --- |
| {Biotin-PEG4″}-CEYDEEFFTALA[Cit]LRGGDICEYIQAKFQYLPGLCIEEILDNLGCS-OH (designed binder, disulfide 1-34, 20-44) [C171] | 8.66 |
| {Biotin-PEG4″}-CEYDEQFFTALARLRGGDICEYIQAKFQYLPGLCIEEILDNLGCS (designed binder, disulfide 1-34, 20-44) [C146] | 9.27 |
| Ac-CEYDEQFFTGLKRLRGGDICYYIKKKFKKVPDLCIEEILDKLGC-OH (designed binder, disulfide 1-34, 20-44) [C49] | 8.71 |
